Listing: OD450 of selected binders
Target: T1, human NMI (N-myc Interacting protein), recombinant protein (human, UniProt Q13287 1-307, limits assumed)
T1 construct: Gene ID: 9111; also called hNMI; antigen
T1 sequence (looked up): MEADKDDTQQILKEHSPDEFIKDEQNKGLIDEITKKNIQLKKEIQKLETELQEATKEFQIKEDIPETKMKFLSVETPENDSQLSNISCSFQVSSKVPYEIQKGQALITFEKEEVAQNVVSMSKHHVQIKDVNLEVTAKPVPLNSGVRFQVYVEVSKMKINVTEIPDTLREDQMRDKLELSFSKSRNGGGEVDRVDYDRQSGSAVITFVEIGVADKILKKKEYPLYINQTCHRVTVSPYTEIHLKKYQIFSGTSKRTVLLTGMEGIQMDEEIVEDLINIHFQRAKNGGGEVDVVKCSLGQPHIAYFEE
Assay: sandwich ELISA; detection 94C4-1-biotin 0.5µg/mL; hNMI 12,500.000 pg/mL

[
  {
    "BINDER": "monoclonal antibody 240B10-1 (antibody, V domains shown, Rabbit monoclonal antibody) VH: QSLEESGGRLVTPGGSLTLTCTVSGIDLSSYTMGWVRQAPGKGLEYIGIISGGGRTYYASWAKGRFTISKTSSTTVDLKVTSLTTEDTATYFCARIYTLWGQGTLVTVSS VL: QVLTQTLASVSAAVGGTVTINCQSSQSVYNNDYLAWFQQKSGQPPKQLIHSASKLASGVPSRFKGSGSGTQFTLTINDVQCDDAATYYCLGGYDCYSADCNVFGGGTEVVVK",
    "OD450, OD450": 2.32
  },
  {
    "BINDER": "monoclonal antibody 39B4 (antibody, V domains shown, Rabbit monoclonal antibody; also called 39B4-1) VH: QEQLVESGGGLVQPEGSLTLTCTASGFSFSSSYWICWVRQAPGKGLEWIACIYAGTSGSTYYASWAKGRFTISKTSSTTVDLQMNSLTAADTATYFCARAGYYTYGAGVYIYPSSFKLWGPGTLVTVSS VL: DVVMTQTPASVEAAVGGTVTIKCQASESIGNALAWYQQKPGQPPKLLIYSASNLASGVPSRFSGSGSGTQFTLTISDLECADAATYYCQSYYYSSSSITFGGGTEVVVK",
    "OD450, OD450": 2.3
  },
  {
    "BINDER": "monoclonal antibody 98G10 (antibody, V domains shown, Rabbit monoclonal antibody) VH: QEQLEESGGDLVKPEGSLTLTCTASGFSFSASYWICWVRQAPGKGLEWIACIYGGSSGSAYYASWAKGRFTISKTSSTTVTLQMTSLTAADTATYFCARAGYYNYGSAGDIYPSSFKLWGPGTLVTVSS VL: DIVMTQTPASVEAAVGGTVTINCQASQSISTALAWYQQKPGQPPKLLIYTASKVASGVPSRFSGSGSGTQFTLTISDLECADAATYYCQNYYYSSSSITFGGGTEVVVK",
    "OD450, OD450": 2.44
  }
]
